target_under_test: human GABA A receptor α3β3γ2 (Homo sapiens, UniProt P18507+P34903)
Construct: expressed in transfected cells; host or cells: HEK293
protocol_summary: [3H]flumazenil competition binding, HEK293 cell membranes
conditions: human α3β3γ2, transiently transfected HEK293; 1 nM [3H]flumazenil; mean of two determinations; read-out: Ki[nM] hα3
Lab note - cut at 500 nM for Ki: 1 if strictly below, -1 if not.

[
  {
    "compound": "COc1ccc(-c2nc3n(n2)Cc2c(CF)ncn2-c2ccc(Cl)cc2-3)cc1OC",
    "label_class": -1
  },
  {
    "compound": "FC(F)c1ncn2c1Cn1ncnc1-c1cc(N3CCOCC3)ccc1-2",
    "label_class": -1
  },
  {
    "compound": "FC(F)c1ncn2c1Cn1ncnc1-c1cc(C3CC3)ccc1-2",
    "label_class": 1
  },
  {
    "compound": "FC(F)c1ncn2c1Cn1ncnc1-c1cc(Br)ccc1-2",
    "label_class": 1
  },
  {
    "compound": "CCc1ccc2c(c1)-c1ncnn1Cc1c(C(F)F)ncn1-2",
    "label_class": 1
  },
  {
    "compound": "CCC(F)c1ncn2c1Cn1ncnc1-c1cc(Br)ccc1-2 (centres unmarked)",
    "label_class": -1
  }
]

* * *

target_under_test: human GABA A receptor α2β3γ2 (Homo sapiens, UniProt P18507+P47869)
Construct: expressed in transfected cells; host or cells: HEK293
protocol_summary: [3H]flumazenil competition binding, HEK293 cell membranes
conditions: human α2β3γ2, transiently transfected HEK293; 1 nM [3H]flumazenil; mean of two determinations; read-out: Ki[nM] hα2

[
  {
    "molecule_smiles": "FC(F)c1ncn2c1Cn1ncnc1-c1cc(Br)ccc1-2",
    "target_under_test": "human GABA A receptor α2β3γ2 (Homo sapiens, UniProt P18507+P47869)",
    "Ki": "185 nM"
  },
  {
    "molecule_smiles": "CCC(F)(F)c1ncn2c1Cn1ncnc1-c1cc(Br)ccc1-2",
    "target_under_test": "human GABA A receptor α2β3γ2 (Homo sapiens, UniProt P18507+P47869)",
    "Ki": "147 nM"
  },
  {
    "molecule_smiles": "FC(F)c1ncn2c1Cn1ncnc1-c1cc(C3CC3)ccc1-2",
    "target_under_test": "human GABA A receptor α2β3γ2 (Homo sapiens, UniProt P18507+P47869)",
    "Ki": "160 nM"
  },
  {
    "molecule_smiles": "FC(F)c1ncn2c1Cn1ncnc1-c1cc(Cc3ccccc3)ccc1-2",
    "target_under_test": "human GABA A receptor α2β3γ2 (Homo sapiens, UniProt P18507+P47869)",
    "Ki": "904 nM"
  }
]

* * *

target_under_test: human GABA A receptor α1β3γ2 (Homo sapiens, UniProt P14867+P18507)
Construct: expressed in transfected cells; host or cells: HEK293
protocol_summary: [3H]flumazenil competition binding, HEK293 cell membranes
conditions: human α1β3γ2, transiently transfected HEK293; 1 nM [3H]flumazenil; mean of two determinations; read-out: Ki[nM] hα1
observable: log10(Ki) (log10 of the value in nM)

[
  {
    "compound": "CC(F)(F)c1ncn2c1Cn1ncnc1-c1cc(F)ccc1-2",
    "log10(Ki)": 2.21
  },
  {
    "compound": "FC(F)c1ncn2c1Cn1ncnc1-c1cc(C3CC3)ccc1-2",
    "log10(Ki)": 2.33
  },
  {
    "compound": "FC(F)c1ncn2c1Cn1ncnc1-c1cc(N3CCOCC3)ccc1-2",
    "log10(Ki)": 3.27
  },
  {
    "compound": "FC(F)c1ncn2c1Cn1ncnc1-c1cc(Br)ccc1-2",
    "log10(Ki)": 2.24
  },
  {
    "compound": "CCC(F)c1ncn2c1Cn1ncnc1-c1cc(Br)ccc1-2 (stereo not drawn)",
    "log10(Ki)": 2.90
  },
  {
    "compound": "C#Cc1ccc2c(c1)-c1ncnn1Cc1c(C(F)F)ncn1-2",
    "log10(Ki)": 3.16
  },
  {
    "compound": "FC(F)c1ncn2c1Cn1ncnc1-c1cc(Cc3ccccc3)ccc1-2",
    "log10(Ki)": 2.66
  },
  {
    "compound": "CCc1ccc2c(c1)-c1ncnn1Cc1c(C(F)F)ncn1-2",
    "log10(Ki)": 2.43
  }
]
